All values here come from patent US20180362632A1.

target: recombinant human GM-CSF protein (human, UniProt P04141 18-144); test: ELISA
Sequence (P04141 18-144): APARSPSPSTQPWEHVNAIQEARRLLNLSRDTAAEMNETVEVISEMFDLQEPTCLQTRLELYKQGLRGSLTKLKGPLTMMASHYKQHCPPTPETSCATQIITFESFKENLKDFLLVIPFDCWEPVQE
EC50 listing for selected binders.
Give your result in nM as a bare value.

Hu23F4-5 (antibody, V domains shown) VH: EVQLVQSGAEVKKPGATVKISCKVSGYTFTSHYLHWVQQAPGKGLEWMGWIFPGDDKTKYNEKFKGRVTITSDTSTDTAYMELSSLRSEDTAVYYCARGTKYLNWNFDVWGQGTTVTVSS VL: DIQLTQSPSFLSASVGDRVTITCKANQNVGTTLAWYQQKPGKAPKLLIYSASYRYSGVPSRFSGSGSGTEFTLTISSLQPEDFATYYCHQYTTYPLTFGGGTKVEIK: 0.0585
Hu23F4-14 (antibody, V domains shown) VH: EVQLVQSGAEVKKPGATVKISCKVSGYTFTSHYLHWVQQAPGKGLEWIGWIFPGDDKTKYNEKFKGRATLTSDTSTDTAYMELSSLRSEDTAVYYCARGTKYLNWNFDVWGQGTTVTVSS VL: DIQLTQSPSFLSASVGDRVTITCKANQNVGTTLAWYQQKPGKAPKALIYSASYRYSGVPSRFSGSGSGTEFTLTISSLQPEDFATYYCHQYTTYPLTFGGGTKVEIK: 0.0508
Hu23F4-13 (antibody, V domains shown) VH: EVQLVQSGAEVKKPGATVKISCKVSGYTFTSHYLHWVQQAPGKGLEWIGWIFPGDDKTKYNEKFKGRATLTSDTSTDTAYMELSSLRSEDTAVYYCARGTKYLNWNFDVWGQGTTVTVSS VL: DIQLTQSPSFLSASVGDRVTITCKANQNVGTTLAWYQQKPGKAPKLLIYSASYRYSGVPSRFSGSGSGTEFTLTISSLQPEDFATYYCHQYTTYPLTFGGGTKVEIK: 0.0852
Hu23F4-8 (antibody, V domains shown) VH: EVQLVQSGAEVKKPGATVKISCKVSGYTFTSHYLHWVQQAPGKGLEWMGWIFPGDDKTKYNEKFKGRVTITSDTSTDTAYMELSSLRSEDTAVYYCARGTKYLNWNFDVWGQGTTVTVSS VL: DIQLTQSPSFLSASVGDRVTITCKANQNVGTTLAWYQQKPGKSPKALIYSASYRYSGVPDRFSGSGSGTDFTLTISSLQPEDFATYFCHQYTTYPLTFGGGTKVEIK: 0.0484
Hu23F4-10 (antibody, V domains shown) VH: EVQLVQSGAEVKKPGATVKISCKVSGYTFTSHYLHWVQQAPGKGLEWMGWIFPGDDKTKYNEKFKGRATLTSDTSTDTAYMELSSLRSEDTAVYYCARGTKYLNWNFDVWGQGTTVTVSS VL: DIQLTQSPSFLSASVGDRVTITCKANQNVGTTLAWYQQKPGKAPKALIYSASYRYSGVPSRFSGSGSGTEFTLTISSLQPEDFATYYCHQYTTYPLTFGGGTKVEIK: 0.116

**Query** Returns the measured EC50 for the input binder. Input: Hu23F4-18 (antibody, V domains shown) VH: EVQLVQSGAEVKKPGATVKISCKVSDYTLTSHYLHWVQQAPGKGLEWIGWIFPGDDKTKYNEKFKGRATLTSDTSTDTAYMELSSLRSEDTAVYYCARGTKYLNWNFDVWGQGTTVTVSS VL: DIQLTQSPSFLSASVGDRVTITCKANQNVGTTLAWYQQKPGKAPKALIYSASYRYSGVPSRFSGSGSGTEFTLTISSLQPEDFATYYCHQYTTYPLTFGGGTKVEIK
**Result** 0.0585

**Query** Returns the measured EC50 for the input binder. Input: Hu23F4-11 (antibody, V domains shown) VH: EVQLVQSGAEVKKPGATVKISCKVSGYTFTSHYLHWVQQAPGKGLEWMGWIFPGDDKTKYNEKFKGRATLTSDTSTDTAYMELSSLRSEDTAVYYCARGTKYLNWNFDVWGQGTTVTVSS VL: DIQLTQSPSFLSASVGDRVTITCKANQNVGTTLAWYQQKPGKAPKALIYSASYRYSGVPDRFSGSGSGTDFTLTISSLQPEDFATYYCHQYTTYPLTFGGGTKVEIK
**Result** 0.0871

**Query** Returns the measured EC50 for the input binder. Input: Hu23F4-6 (antibody, V domains shown) VH: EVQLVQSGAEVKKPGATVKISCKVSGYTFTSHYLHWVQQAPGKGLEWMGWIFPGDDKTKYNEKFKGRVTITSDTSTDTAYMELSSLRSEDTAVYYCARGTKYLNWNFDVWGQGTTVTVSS VL: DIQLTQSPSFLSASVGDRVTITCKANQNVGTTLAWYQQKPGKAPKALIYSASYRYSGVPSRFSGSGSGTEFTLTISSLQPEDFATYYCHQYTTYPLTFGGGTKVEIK
**Result** 0.0196

**Query** Returns the measured EC50 for the input binder. Input: Hu23F4-2 (antibody, V domains shown) VH: EVQLVQSGAEVKKPGATVKISCKVSGYTFTSHYLHWVQQAPGKGLEWMGWIFPGDDKTKYNEKFKGRVTITADTSTDTAYMELSSLRSEDTAVYYCARGTKYLNWNFDVWGQGTTVTVSS VL: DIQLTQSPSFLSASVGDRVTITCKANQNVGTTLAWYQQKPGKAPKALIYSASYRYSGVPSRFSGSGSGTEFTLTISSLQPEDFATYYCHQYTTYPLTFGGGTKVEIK
**Result** 0.158

**Query** Returns the measured EC50 for the input binder. Input: Hu23F4-20 (antibody, V domains shown) VH: EVQLVQSGAEVKKPGASVKVSCKASGYTFTSHYLHWVRQAPGQGLEWMGWIFPGDDKTKYNEKFKGRVTMTRDTSISTAYMELSRLRSDDTAVYYCARGTKYLNWNFDVWGQGTTVTVSS VL: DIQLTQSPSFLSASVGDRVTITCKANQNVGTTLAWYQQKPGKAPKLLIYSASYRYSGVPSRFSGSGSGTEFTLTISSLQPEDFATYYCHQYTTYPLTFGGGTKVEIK
**Result** 0.0993
